# protocol.summary: Partition coefficient (logP)
# Format: physicochemical
# condition.set: octanol/water; read-out: logP
Rule: T for logP not less than 5, F for anything less.

Here are 4 compounds together with their reported answers.
# smiles.entry, cat
measured = [
    ("CCCC/N=C1\\C=C(O)c2ncccc2C1=N", "F"),
    ("CC(C)CCC1=C(N)C(=O)c2ccccc2C1=O", "F"),
    ("CCCCCN(CCCCC)CCC/N=C1/C=C(O)C(=O)c2ccccc21", "T"),
    ("CCCCCCCCCCC1=C(O)C(=O)c2cc(OC)ccc2C1=O", "T"),
]

Now for a further compound.
Threshold query (logP >= 5) on CCCCCCCCCCCCCCCC1=C(O)C(=O)c2cccnc2C1=O
T

The measurements presented in this section are drawn from ChEMBL document CHEMBL1121445.
